# Tested on: Balb/c splenocytes (resting lymphocytes)
# Protocol: Lymphocyte viability (LcV) assay
# Assay type: cell-based, murine
# Measurement Parameters: unstimulated Balb/c splenocytes, MTT
# Procedure: Forty two (42) didemnin compounds (see Table 1) were evaluated for cytotoxicity to one of the lymphocyte populations in the MLR (i.e., Balb/c splenocytes). […] Assay plates were incubated as in the MLR and then pulsed overnight 75 μL per well MTT-thiazolyl blue solution (150 μg). […] Absorbance at 570 nm was measured. The LcV data were calculated as a percentage of basal metabolic activity, or percent viability, relative to BALB/c control, and an LC50 value was interpolated for each test compound.
Numbered stars: 1 amine (or outer) side, 2 acyl side, 3 side chain; on linkers, the order of the positions; unused ones are H or OH. Bridge positions count the residues as written; N and C are the ends. Square brackets hold non-standard residues; d marks the D form. Peptide text beside a SMILES is read from it. * marks the point of attachment. X1 = CC[C@H](C)[C@@H](N[*:1])[C@@H](O)CC(=O)O[C@H](C(=O)[C@H](C)C(=O)[*:2])C(C)C; X7 = CCC(C)C(N[*:1])C(O)CC(=O)OC(C(=O)C(C)C(=O)[*:2])C(C)C; NMeY = CN[CH](Cc1ccc(O)cc1)C(=O)O; Stearoyl = CCCCCCCCCCCCCCCCCC(=O)*; dNMeL = CN[C@H](CC(C)C)C(=O)O; pGlu = O=C1CC[C@@H](C(=O)O)N1; NMeL = CN[CH](CC(C)C)C(=O)O; Lac = C[C@H](O)C(=O)O; Butyryl = CCCC(=O)*
Test Readout: cytoxicity to lymphocytes LcV, LC50

Illustrative cases are given below, each with its answer.
CCCCCCCCCCCCCCCCCC(=O)N(C)[C@H](CC(C)C)C(=O)N[C@@H]1C(=O)N[C@H]([C@@H](C)CC)[C@@H](O)CC(=O)O[C@@H](C(C)C)C(=O)[C@H](C)C(=O)N[C@@H](CC(C)C)C(=O)N2CCC[C@H]2C(=O)N(C)[C@@H](Cc2ccc(OC)cc2)C(=O)O[C@@H]1C [Compound 25, N^α -Octadecanoyldidemnin A] (Stearoyl-[dNMeL]T[X1]LP[NMeY](Me); ester 2-C) | > 8.50 µM
CC[C@H](C)[C@H]1NC(=O)[C@@H](NC(=O)[C@@H](CC(C)C)N(C)C(=O)[C@@H]2CCCN2C(C)=O)[C@@H](C)OC(=O)[C@H](Cc2ccc(OC)cc2)N(C)C(=O)[C@@H]2CCCN2C(=O)[C@H](CC(C)C)NC(=O)[C@@H](C)C(=O)[C@H](C(C)C)OC(=O)C[C@@H]1O [Compound 31, [Acetyl^9]Didemnin B] (Ac-P[dNMeL]T[X1]LP[NMeY](Me); ester 3-C) | 2.80 µM
CC[C@H](C)[C@H]1NC(=O)[C@@H](NC(=O)[C@@H](CC(C)C)N(C)C(=O)[C@@H]2CCCN2C(=O)[C@H](C)O)[C@@H](C)OC(=O)[C@H](Cc2ccc(OC)cc2)N(C)C(=O)[C@@H]2CCCN2C(=O)[C@H](CC(C)C)NC(=O)[C@@H](C)C(=NO)[C@H](C(C)C)OC(=O)C[C@@H]1O [Compound 11, [Hip^3 oxime]Didemnin B] | > 8.9 µM
CC[C@H](C)[C@H]1NC(=O)[C@@H](NC(=O)[C@@H](CC(C)C)N(C)C(=O)[C@@H]2CCCN2C(=O)[C@H](C)O)[C@@H](C)OC(=O)[C@H](CC2CCCCC2)N(C)C(=O)[C@@H]2CCCN2C(=O)[C@H](CC(C)C)NC(=O)[C@@H](C)C(=O)[C@H](C(C)C)OC(=O)C[C@@H]1O [Compound 16, [H6 -N-MePhe^6]Didemnin B] | > 9.20 µM
CC[C@H](C)[C@H]1NC(=O)[C@@H](NC(=O)[C@@H](CC(C)C)N(C)C(=O)[C@@H]2CCCN2C(=O)[C@H](C)OC(=O)[C@H](CCC(N)=O)NC(=O)[C@@H]2CCC(=O)N2)[C@@H](C)OC(=O)[C@H](Cc2ccc(OC)cc2)N(C)C(=O)[C@@H]2CCCN2C(=O)[C@H](CC(C)C)NC(=O)[C@@H](C)C(=O)[C@H](C(C)C)OC(=O)C[C@@H]1O [Compound 38, Didemnin M] ([pGlu]Q[Lac]P[dNMeL]T[X1]LP[NMeY](Me); ester 6-C) | > 7.41 µM

Look up cytoxicity to lymphocytes LcV, LC50 for this compound: CCCC(=O)N(C)C(CC(C)C)C(=O)NC1C(=O)NC(C(C)CC)C(O)CC(=O)OC(C(C)C)C(=O)C(C)C(=O)NC(CC(C)C)C(=O)N2CCCC2C(=O)N(C)C(Cc2ccc(OC)cc2)C(=O)OC1C (stereo not drawn) [Compound 20, N^α -n-Butyryldidemnin A] (Butyryl-[NMeL]T[X7]LP[NMeY](Me); ester 2-C; configuration not given here)
0.099 µM

These measurements were taken from patent US6156724A.
